Recorded measurements of Corn plant response rating, one per entry
# Test system: corn
# assay.details: Test B pre-/postemergence herbicide test
# Assay type: in vivo, Zea mays
# experimental.conditions: postemergence, 125 g ai/ha; scale 0 to 100
Could you keep your reply to the number by itself?

Recorded results for 5 compounds are shown here.
CCNC(=O)c1cccc(NC(=O)c2nn(C(C)(C)C)nc2Br)c1	40
C=CCNC(=O)c1ccc(F)c(N(C(C)=O)C(=O)c2cc(C(C)(C)C)nn2CC)c1	20
CC(C)(C)n1nc(Br)c(C(=O)Nc2cccc(C(=O)NC3CC3)c2)n1	20
CCN(CC)C(=O)c1cccc(NC(=O)c2nn(C(C)(C)C)nc2C)n1	0
Cc1nn(C(C)(C)C)nc1C(=O)Nc1cc(C(=O)N(C)C)ccn1	10

// next entry
Could you share which Corn plant response rating value was measured for CCNC(=O)c1ccnc(NC(=O)c2nn(C(C)(C)C)nc2C)c1 ?
0

* * *

# Test system: large crabgrass
# assay.details: Test E pre-/postemergence herbicide test
# Type: in vivo, Digitaria sanguinalis
# experimental.conditions: Preemergence; 250 g ai/ha; scale 0 (no effect) to 100 (complete control)
# Procedure: […] At the same time, plants selected from these weed species were treated with postemergence applications of some of the test chemicals formulated in the same manner. […] Treated plants and controls were maintained in a greenhouse for 12 to 14 days, after which time all species were compared to controls and visually evaluated. […]
Recorded measurements of Plant response rating, Crabgrass, Large, one per entry
Could you keep your reply to the number by itself?

CCc1nn(C(C)(C)C)nc1C(=O)Nc1cccc(C(=O)N(C)CC)c1	100
CCc1nn(C(C)(C)C)nc1C(=O)Nc1cccc(C(=S)N(C)C)c1	100
CCn1nc(C(C)(C)C)cc1C(=O)Nc1cc(C(=S)N(C)C)ccc1F	95

Could you share which Plant response rating, Crabgrass, Large value was measured for Cc1nn(C(C)(C)C)nc1C(=O)Nc1cccc(C(=O)N2CC=CC2)c1 ?
95

* * *

# Test system: kochia
# assay.details: Test C pre-/postemergence herbicide test
# Assay type: in vivo, Kochia scoparia
# experimental.conditions: 125 g ai/ha; scale 0 (no effect) to 100 (complete control); visual, 12 to 14 days; preemergence
// assign Condition met if Plant response rating, Kochia falls strictly below 80, else Condition not met (ties count as Condition not met)

Field: example entries. Status: answers known.
C#CCNC(=O)c1cccc(NC(=O)c2cc(C(C)(C)C)nn2CC)c1 [Compound 47]	Condition met
CCn1nc(C(C)(C)C)cc1C(=O)Nc1cccc(SC)c1 [Compound 131]	Condition not met
C#CCn1nc(C(C)(C)C)cc1C(=O)Nc1cccc(C(=O)NCC)c1 [Compound 50]	Condition not met

Continue with the next compound.
Is the reported Plant response rating, Kochia for CCN(C)C(=O)c1ccc(F)c(NC(=O)C2CC(C(C)(C)C)=NN2CC)c1 (racemic) [Compound 307] strictly below 80?
Condition not met

* * *

# Tested on: morningglory
# assay.details: Test B pre-/postemergence herbicide test
# Type: in vivo, Ipomoea coccinea
# experimental.conditions: postemergence, 500 g ai/ha; visual rating, scale 0 (no effect) to 100 (complete control)
Recorded measurements of Morningglory plant response rating, one per entry
Could you keep your reply to the number by itself?

CCn1nc(C(C)(C)C)cc1C(=O)Nc1cccc(SC(F)(F)F)c1 [Compound 130]	100

Could you share which Morningglory plant response rating value was measured for CCNC(=O)c1cccc(NC(=O)c2sc(C(C)(C)C)nc2CC)n1 [Compound 213] ?
30

Could you share which Morningglory plant response rating value was measured for CCn1nc(C(C)(C)C)cc1C(=O)Nc1cccc(C(N)=O)n1 [Compound 162] ?
60

Could you share which Morningglory plant response rating value was measured for CCn1nc(C(C)(C)C)cc1C(=O)Nc1cc(C(=O)OC)cc(C)n1 [Compound 148] ?
10

Could you share which Morningglory plant response rating value was measured for CCn1nc(C(C)(C)C)cc1C(=O)Nc1cc(C(=O)N2CC=CC2)ccn1 [Compound 142] ?
50

Could you share which Morningglory plant response rating value was measured for CCc1nc(C(C)(C)C)sc1C(=O)Nc1cccc(C(=O)N(C)C)c1 [Compound 228] ?
80

* * *

# Test system: velvetleaf
# assay.details: Test B pre-/postemergence herbicide test
# Assay type: in vivo, Abutilon theophrasti
# experimental.conditions: 125 g ai/ha; 0 is no effect, 100 is complete control; preemergence
Recorded measurements of Plant response rating (0 to 100 scale), Velvetleaf, one per entry
Could you keep your reply to the number by itself?

Could you share which Plant response rating (0 to 100 scale), Velvetleaf value was measured for CCOC(=O)c1cccc(NC(=O)c2nn(C(C)(C)CC)nc2CC)c1 [Compound 375] ?
30

Could you share which Plant response rating (0 to 100 scale), Velvetleaf value was measured for CCn1nc2c(c1C(=O)Nc1cc(C(=O)N(C)C)ccc1F)CCC2(C)C [Compound 352] ?
30

Could you share which Plant response rating (0 to 100 scale), Velvetleaf value was measured for CCC1=NN(C(C)(C)C)CC1C(=O)Nc1cc(C(=O)N(C)C)ccc1F (racemic) [Compound 343] ?
100

Could you share which Plant response rating (0 to 100 scale), Velvetleaf value was measured for CCOC(=O)c1ccc(F)c(NC(=S)c2cc(C(C)(C)C)nn2CC)c1 [Compound 346] ?
0

Could you share which Plant response rating (0 to 100 scale), Velvetleaf value was measured for CCNC(=O)c1cncc(NC(=O)c2nn(C(C)(C)C)nc2C)c1 [Compound 427] ?
0

* * *

Recorded measurements of Corn plant response rating, one per entry
# System: corn
# assay.details: Test B pre-/postemergence herbicide test
# Type: in vivo, Zea mays
# experimental.conditions: postemergence, 500 g ai/ha; scale 0 to 100, 0 is no effect, 100 is complete control

Recorded results for 3 molecules are shown here.
CCN(C)C(=O)c1cncc(NC(=O)c2cc(C(C)(C)C)nn2CC)c1 [Compound 263]	10
CCn1nc(C(C)(C)C)cc1C(=O)Nc1cc(OC)ccc1F [Compound 347]	0
CCc1nn(C(C)(C)CC)nc1C(=O)Nc1cc(C(=O)N(C)C)ccc1F [Compound 368]	10

Could you share which Corn plant response rating value was measured for C=CCNC(=O)c1ccc(F)c(NC(=O)c2nn(C(C)(C)C)nc2CC)c1 [Compound 383] ?
0

* * *

# Test system: giant foxtail
# assay.details: Test C pre-/postemergence herbicide test
# Type: in vivo, Setaria faberi
# experimental.conditions: Postemergence, 500 g ai/ha; scale 0 to 100
result.type: Foxtail, Giant plant response rating
Could you keep your reply to the number by itself?

Could you share which Foxtail, Giant plant response rating value was measured for CCn1nc(C(C)(C)C)cc1C(=O)Nc1cccc(OC(F)F)c1 ?
20

Could you share which Foxtail, Giant plant response rating value was measured for CC(=NO)c1cccc(NC(=O)c2cc(C(C)(C)C)nn2CCF)c1 ?
80

Could you share which Foxtail, Giant plant response rating value was measured for CCCCOC(=O)c1cccc(NC(=O)c2cc(C(C)(C)C)nn2CC)c1 ?
70

Could you share which Foxtail, Giant plant response rating value was measured for CCNC(=O)c1cc(NC(=O)c2cc(C(C)(C)C)nn2CC)ccc1F ?
40

* * *

Recorded measurements of Lambsquarters plant response rating, one per entry
# Test system: lambsquarters
# assay.details: Test B pre-/postemergence herbicide test
# Type: in vivo, Chenopodium album
# experimental.conditions: postemergence, 125 g ai/ha; visual rating, scale 0 (no effect) to 100 (complete control)
Could you keep your reply to the number by itself?

Recorded results for 5 compounds are shown here.
C#CCn1nc(C(C)(C)C)cc1C(=O)Nc1cccc(C(=O)NCC)c1 [Compound 50]	80
CCN(CC)C(=O)c1cccc(NC(=O)c2nn(C(C)(C)C)cc2C(F)(F)F)c1 [Compound 169]	40
CCN(CC)C(=O)c1cc(NC(=O)c2cc(C(C)(C)C)nn2CC)c(F)cc1F [Compound 253]	20
CCn1nc(C(C)(C)C)cc1C(=O)Nc1cccc(C(N)=O)n1 [Compound 162]	80
CCOC(=O)c1cc(NC(=O)c2cc(C(C)(C)C)nn2CC)c(F)cc1F [Compound 250]	0

// next entry
Could you share which Lambsquarters plant response rating value was measured for CCc1nc(C(C)(C)C)sc1C(=O)Nc1cccc(C(=O)NCC(F)(F)F)c1 [Compound 206] ?
30

* * *

# Test system: velvetleaf
# assay.details: Test B pre-/postemergence herbicide test
# Assay type: in vivo, Abutilon theophrasti
# experimental.conditions: postemergence, 500 g ai/ha; visual rating, scale 0 (no effect) to 100 (complete control)
Recorded measurements of Velvetleaf plant response rating, one per entry
Could you keep your reply to the number by itself?

Recorded results for 8 compounds are shown here.
CCC(C)c1cc(C(=O)Nc2cccc(C(C)=NO)c2)n(C)n1 (stereo not shown)	30
CCNC(=O)c1cccc(NC(=O)c2sc(C(C)(C)C)nc2C)c1	20
CCOC(=O)c1cccc(NC(=O)c2cn(C(C)(C)C)nc2CC)c1	60
CCn1nc(C(C)(C)C)cc1C(=O)Nc1cc(C(=O)NCCOC)ccn1	50
CCn1nc(C(C)(C)C)cc1C(=O)Nc1cccc([S+]([O-])C(F)(F)F)c1 (stereo not shown)	30
C=Cn1nc(C(C)(C)C)cc1C(=O)Nc1cccc(C(C)=O)c1	10
CCN(CC)C(=O)c1cccc(NC(=O)c2nn(C(C)(C)C)cc2Br)c1	0
CCNC(=O)c1cccc(NC(=O)c2nn(C(C)(C)C)cc2Cl)c1	10

Could you share which Velvetleaf plant response rating value was measured for C=CCNC(=O)c1ccc(F)c(NC(=O)c2sc(CC)nc2C(C)(C)C)c1 ?
50

Could you share which Velvetleaf plant response rating value was measured for CC(=NO)c1cccc(NC(=O)c2sc(C(C)(C)C)nc2C)c1 ?
40
